Measured IC50 by item
target.or.test.system: P2X purinoceptor 7 (Homo sapiens)
Sequence (Q99572 whole entry): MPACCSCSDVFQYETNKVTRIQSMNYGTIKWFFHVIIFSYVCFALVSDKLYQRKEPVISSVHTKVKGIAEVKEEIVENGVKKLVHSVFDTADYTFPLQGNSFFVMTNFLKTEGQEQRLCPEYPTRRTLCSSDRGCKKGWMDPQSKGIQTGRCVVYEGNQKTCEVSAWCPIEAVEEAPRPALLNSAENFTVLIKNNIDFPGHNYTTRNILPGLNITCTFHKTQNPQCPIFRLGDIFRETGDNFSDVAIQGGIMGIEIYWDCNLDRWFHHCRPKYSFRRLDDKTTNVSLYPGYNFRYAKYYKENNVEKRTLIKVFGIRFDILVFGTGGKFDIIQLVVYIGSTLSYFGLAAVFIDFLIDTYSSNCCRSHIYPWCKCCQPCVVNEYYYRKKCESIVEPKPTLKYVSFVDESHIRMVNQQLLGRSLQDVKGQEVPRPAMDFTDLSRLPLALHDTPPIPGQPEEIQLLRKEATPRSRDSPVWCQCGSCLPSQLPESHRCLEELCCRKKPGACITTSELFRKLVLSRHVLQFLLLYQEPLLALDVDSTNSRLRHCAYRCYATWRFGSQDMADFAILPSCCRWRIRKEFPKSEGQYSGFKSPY
method.notes: Antagonist activity at human P2X7 receptor expressed in human 1321N1 cells assessed as inhibition of calcium flux by FLIPR
# output: bare number, implied unit nM

IC50 of c1ccc(Cn2nnnc2-c2cccc3cccnc23)cc1 , assay on P2X purinoceptor 7 (Homo sapiens), is 25100

Record Clc1cccc(-c2nnnn2CCc2cccnc2)c1Cl / P2X purinoceptor 7 (Homo sapiens), IC50 recorded as 12600

// IC50 (P2X purinoceptor 7 (Homo sapiens)) for Clc1cccc(-c2nnnn2Cc2ccccn2)c1Cl = 501

The observed IC50 for c1ccc(-c2nnnn2Cc2cccnc2)cc1 when tested with P2X purinoceptor 7 (Homo sapiens) stands at 25100

Noted IC50 for Clc1cccc(-c2nnnn2Cc2ccncc2)c1Cl , tested on P2X purinoceptor 7 (Homo sapiens): 794

Entry COc1cccc(-c2nnnn2Cc2ccccc2Cl)c1OC ; assay system P2X purinoceptor 7 (Homo sapiens); IC50 recorded at 3980

The observed IC50 for Clc1ccccc1-c1nnnn1Cc1cccnc1 when tested with P2X purinoceptor 7 (Homo sapiens) stands at 15800

Reported IC50 (P2X purinoceptor 7 (Homo sapiens)) for entry Fc1c(-c2nnnn2Cc2cccnc2)cccc1C(F)(F)F is 63.1

Param item: O=C(NCC12CC3CC(CC(C3)C1)C2)c1cccc(Cl)c1Cl ; param system: P2X purinoceptor 7 (Homo sapiens); output IC50: 63.1

P2X purinoceptor 7 (Homo sapiens) IC50 of FC(F)(F)c1cccc(-n2nnnc2Cc2cccnc2)c1Cl is 12.6

Entry Cc1nc(C)c(Cn2nnnc2-c2cccc(Cl)c2Cl)s1 , P2X purinoceptor 7 (Homo sapiens) data, IC50 value: 50.1
